Test system: phospholipase A2 (PLA2) contained in the membrane fraction of rabbit heart
Experiment: Inhibitory activity against phospholipase A2 (PLA2) contained in the membrane fraction of rabbit heart
Assay type: biochemical
Details: CaCl2 added, 37° C., 30 minutes
// reported PLA2 -inhibitory activity IC30, membrane fraction for each item listed
quantity: PLA2 -inhibitory activity IC30, membrane fraction

- molecule: "CN(C(=O)/C=C/c1ccc(-n2ccnc2)cc1)c1ccc(S(=O)(=O)NC2CCCCCC2)cc1"
  result: "0.45 µM"
- molecule: "CCN(CC)CCCC(C)Nc1c2ccc(Cl)cc2nc2ccc(OC)cc12 (centres unmarked) [mepacrine, reference compound]"
  result: "> 100 µM"
- molecule: "COc1ccc(CCN2CCC(NS(=O)(=O)c3ccc(N(C)C(=O)/C=C/c4ccc(S(C)(=O)=O)cc4)cc3)CC2)cc1OC"
  result: "0.03 µM"
- molecule: "CN(C(=O)/C=C/c1ccc(O)cc1)c1ccc(S(=O)(=O)NC2CCCCCC2)cc1"
  result: "0.62 µM"
- molecule: "CN(C(=O)/C=C/C=C/c1ccc(O)c(O)c1)c1ccc(S(=O)(=O)NC2CCc3ccccc3C2)cc1 (centres unmarked)"
  result: "1.7 µM"
- molecule: "CN(C(=O)/C=C/c1ccc(S(C)(=O)=O)cc1)c1ccc(S(=O)(=O)NC2CCCCCC2)cc1"
  result: "0.016 µM"
- molecule: "COc1ccc(/C(=C/C(=O)Nc2ccc(S(N)(=O)=O)cc2)c2cccnc2)cc1OC"
  result: "41 µM"
- molecule: "CN(C(=O)/C=C/c1ccc(O)c(O)c1)c1ccc(S(=O)(=O)NC2Cc3ccccc3C2)cc1"
  result: "4.48 µM"
